target: EcoDgoR T191A (Escherichia coli, UniProt P31460, T191A); assay: MST binding assay, EcoDgoR T191A mutant

compound: O=C(O)[C@H](O)[C@@H](O)[C@@H](O)[C@H](O)CO [D-galactonate]
Kd: > 50 mM

###

target: UniProt:P31460; assay: MST binding assay, D-galactonate to wild-type EcoDgoR; conditions: WT EcoDgoR after EDTA incubation

compound: O=C(O)[C@H](O)[C@@H](O)[C@@H](O)[C@H](O)CO [D-galactonate]
Kd, mM: 30

###

molecular target: EcoDgoR H150A (Escherichia coli, UniProt P31460, H150A); assay: MST binding assay, EcoDgoR H150A mutant
Sequence (P31460 whole entry H150A): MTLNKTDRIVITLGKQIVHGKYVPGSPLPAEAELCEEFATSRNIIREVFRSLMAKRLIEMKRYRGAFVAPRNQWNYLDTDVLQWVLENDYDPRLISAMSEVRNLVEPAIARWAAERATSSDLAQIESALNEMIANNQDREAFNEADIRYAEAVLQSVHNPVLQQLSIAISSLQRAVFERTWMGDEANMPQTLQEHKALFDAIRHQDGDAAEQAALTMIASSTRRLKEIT

compound: O=C(O)[C@H](O)[C@@H](O)[C@@H](O)[C@H](O)CO [D-galactonate]
unitAbbrev: mM
Kd: 4.99

###

molecular target: EcoDgoR W181A (Escherichia coli, UniProt P31460, W181A); assay: MST binding assay, EcoDgoR W181A mutant
Sequence (P31460 whole entry W181A): as the sequence (P31460 whole entry H150A) above, with A150H, W181A counted along it

compound: O=C(O)[C@H](O)[C@@H](O)[C@@H](O)[C@H](O)CO [D-galactonate]
Kd: > 50 mM

###

target: EcoDgoR R224A (Escherichia coli, UniProt P31460, R224A); test: MST binding assay, EcoDgoR R224A mutant
pKd: −log10 of the molar value.
property: pKd

molecule: O=C(O)[C@H](O)[C@@H](O)[C@@H](O)[C@H](O)CO [D-galactonate]
property: pKd
reading: < 1.30
